// data source = patent US20250011363A1

Catalogue of Binding affinity (RU) values
# SYSTEM_NAME: acetylcholine receptor
# ASSAY_METHOD_TEXT: SPR, AchR immobilised on chip, peptide 10 uM
Please give a number only; it is taken to be in RU.

Incoming: Which Binding affinity (RU) value belongs to RKRYSR [6mer-1-215] ?
Outgoing: 136

Incoming: Which Binding affinity (RU) value belongs to KKWFQR [6mer-1-221] ?
Outgoing: 148

Incoming: Which Binding affinity (RU) value belongs to RRLIYK [6mer-1-248] ?
Outgoing: 151

Incoming: Which Binding affinity (RU) value belongs to RKLICK [6mer-1-1225] ?
Outgoing: 142

Incoming: Which Binding affinity (RU) value belongs to RRRVQK [6mer-1-244] ?
Outgoing: 144

Incoming: Which Binding affinity (RU) value belongs to RRVQLK [6mer-1-253] ?
Outgoing: 145
